run.parameters: Liquid
measure: Critical pressure (kPa)
Enter your answer as a number in kPa; do not include the unit.

Fill in: Critical pressure of CCCCCC(=O)OCC [ethyl hexanoate] is ___
2531.3

Request the reported Critical pressure associated with CCCCCCCC(=O)OCC [ethyl octanoate]
2159.2

Critical pressure lookup needed for C/C=C/C(=O)OCC [ethyl trans-2-butenoate] , thanks.
3670.8

Entry under review: CCCCCCC(=O)OCC [ethyl heptanoate] . Reported Critical pressure?
2356.9

Consider the compound CCCCC(=O)OCC [ethyl pentanoate] and give its measured Critical pressure.
2730.4

Fill in: Critical pressure of O=C=O [carbon dioxide] is ___
7379.8

Entry CCOC(C)=O [ethyl acetate] : reported Critical pressure = ?
3828.9

Consider the compound CCOC(=O)CC [ethyl propanoate] and give its measured Critical pressure.
3385.6

Look up Critical pressure for this compound: CCCC(=O)OCC [ethyl butanoate]
2891.5

* * *

Answer each item with its documented Critical temperature.
run.parameters: Liquid
Write the number in K without appending the unit.

Any idea what its Critical temperature is? The compound is CCOC(C)=O [ethyl acetate]
523.29

Name the recorded Critical temperature for CCCCC(=O)OCC [ethyl pentanoate] .
594.02

Quick one: Critical temperature of C/C=C/C(=O)OCC [ethyl trans-2-butenoate] ?
593.84

Could you share which Critical temperature value was measured for CCCCCCC(=O)OCC [ethyl heptanoate] ?
635.12

Could you tell me which Critical temperature is on file for O=C=O [carbon dioxide] ?
304.3

Entry under review: CCOC(=O)CC [ethyl propanoate] . Reported Critical temperature?
546.28

Which Critical temperature value is on record for CCCCCC(=O)OCC [ethyl hexanoate] ?
615.22

Entry under review: CCCCCCCC(=O)OCC [ethyl octanoate] . Reported Critical temperature?
655.74

Dear colleague, I am looking for the recorded Critical temperature of the following compound: CCCC(=O)OCC [ethyl butanoate]
569.98
